Molecular target: RAC-gamma serine/threonine-protein kinase (Homo sapiens) (UniProt Q9Y243)
Sequence (Q9Y243 whole entry): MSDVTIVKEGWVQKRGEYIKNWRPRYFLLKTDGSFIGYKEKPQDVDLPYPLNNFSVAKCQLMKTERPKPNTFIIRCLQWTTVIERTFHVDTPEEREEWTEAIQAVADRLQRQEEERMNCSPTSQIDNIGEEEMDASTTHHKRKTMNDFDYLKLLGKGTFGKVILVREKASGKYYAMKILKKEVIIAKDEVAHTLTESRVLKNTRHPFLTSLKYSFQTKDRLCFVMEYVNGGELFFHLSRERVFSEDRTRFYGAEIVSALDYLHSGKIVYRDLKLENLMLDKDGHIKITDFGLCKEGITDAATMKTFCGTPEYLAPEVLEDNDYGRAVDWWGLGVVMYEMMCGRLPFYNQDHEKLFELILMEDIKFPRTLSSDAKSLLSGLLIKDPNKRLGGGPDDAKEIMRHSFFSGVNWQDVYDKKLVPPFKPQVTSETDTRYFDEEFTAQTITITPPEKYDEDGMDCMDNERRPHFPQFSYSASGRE
Conditions: at 1 µM
Description: GSK_PKIS: AKT3 mean inhibition at 1 uM [Nanosyn]
Measured Parameter: inhibition (%)
Give bare numbers, in %.

Structure Notation	Unit Symbol	inhibition
COc1cccc(-n2ncc3c(N/N=C/c4ccc(C)cc4)ncnc32)c1	%	1.94
Cc1ccc2c(c1)/C(=N/Nc1ccc(S(N)(=O)=O)cc1)C(=O)N2	%	0.38
Oc1cccc(-c2nc(-c3ccccc3)[nH]c2-c2ccncc2)c1	%	3.85
c1ccc(Cc2nc3ccc(Nc4ncnc5ccccc45)cc3[nH]2)cc1	%	0.88

Would you mind giving inhibition for every compound in the list below?
1. OCc1ccc(-c2nc(-c3ccccn3)c(-c3ccc4c(c3)OCO4)[nH]2)cc1
2. CCn1c(-c2nonc2N)nc2c(C#CC(C)(C)O)nc(OCCNC)cc21
3. COC(=O)Nc1nc2cc(Oc3ccc(NC(=O)Nc4cccc(Br)c4)cc3)ccc2[nH]1
4. COc1ccc(-c2nn3ncccc3c2-c2ccnc(Nc3cccc(C(F)(F)F)c3)n2)cc1
5. COC(=O)c1ccc2c(c1)C(=Cc1cc(Br)c(O)c(Br)c1)C(=O)N2
6. CCS(=O)(=O)c1ccc(OC)c(Nc2nccc(N(C)c3ccc4c(C)n[nH]c4c3)n2)c1

0.86
68.2
-2.06
1.95
2.88
2.78

----------
Assign inhibition to each entry below.
Biological target: Hepatocyte growth factor receptor (Homo sapiens) (UniProt P08581);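 also: reported values are means of MET inhibition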
Sequence (P08581 whole entry): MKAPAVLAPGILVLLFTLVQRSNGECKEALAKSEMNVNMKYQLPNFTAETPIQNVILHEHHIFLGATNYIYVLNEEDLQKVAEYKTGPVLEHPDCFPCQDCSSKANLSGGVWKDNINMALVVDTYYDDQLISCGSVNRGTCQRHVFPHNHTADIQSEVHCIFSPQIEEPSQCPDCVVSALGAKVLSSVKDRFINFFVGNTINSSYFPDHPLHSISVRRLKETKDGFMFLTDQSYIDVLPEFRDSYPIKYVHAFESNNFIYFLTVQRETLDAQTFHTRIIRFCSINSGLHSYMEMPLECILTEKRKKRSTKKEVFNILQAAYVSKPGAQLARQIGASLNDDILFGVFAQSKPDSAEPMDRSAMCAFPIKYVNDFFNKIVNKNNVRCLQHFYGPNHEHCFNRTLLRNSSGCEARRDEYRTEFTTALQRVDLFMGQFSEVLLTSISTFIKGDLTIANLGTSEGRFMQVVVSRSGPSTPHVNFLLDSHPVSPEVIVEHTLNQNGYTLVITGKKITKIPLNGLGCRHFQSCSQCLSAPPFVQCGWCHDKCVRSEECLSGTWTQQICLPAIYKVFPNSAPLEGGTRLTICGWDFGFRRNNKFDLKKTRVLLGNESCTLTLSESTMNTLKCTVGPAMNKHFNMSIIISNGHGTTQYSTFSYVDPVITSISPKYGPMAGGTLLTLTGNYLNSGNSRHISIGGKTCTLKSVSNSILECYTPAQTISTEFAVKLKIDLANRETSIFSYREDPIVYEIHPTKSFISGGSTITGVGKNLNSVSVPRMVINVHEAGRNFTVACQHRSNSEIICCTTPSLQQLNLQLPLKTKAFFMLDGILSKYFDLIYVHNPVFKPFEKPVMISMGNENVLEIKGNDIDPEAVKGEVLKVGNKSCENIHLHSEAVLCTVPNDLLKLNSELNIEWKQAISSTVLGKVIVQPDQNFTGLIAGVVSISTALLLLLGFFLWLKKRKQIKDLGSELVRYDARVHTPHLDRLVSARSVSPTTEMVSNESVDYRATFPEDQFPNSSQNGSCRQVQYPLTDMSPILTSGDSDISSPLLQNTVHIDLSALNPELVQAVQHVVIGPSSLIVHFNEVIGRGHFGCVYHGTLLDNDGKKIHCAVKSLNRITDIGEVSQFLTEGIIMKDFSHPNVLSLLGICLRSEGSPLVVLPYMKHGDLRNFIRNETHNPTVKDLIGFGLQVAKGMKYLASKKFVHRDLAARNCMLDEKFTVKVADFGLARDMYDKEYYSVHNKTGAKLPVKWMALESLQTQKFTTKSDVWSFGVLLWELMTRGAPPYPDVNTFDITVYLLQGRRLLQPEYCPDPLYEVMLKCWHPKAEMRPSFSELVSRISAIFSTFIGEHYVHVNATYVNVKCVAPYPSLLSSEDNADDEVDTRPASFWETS
Settings: at 0.1 µM
One number for each entry, in %.

Molecule	Recorded Result
CCCN1CCCC(c2ccc(Nc3nc(Nc4cc(F)ccc4C(N)=O)c4cc[nH]c4n3)c(OC)c2)C1 (stereo unspecified)	2.96
COc1cc2ncnc(Nc3ccc4c(cnn4Cc4ccccc4)c3)c2cc1OC	2.31
CCS(=O)(=O)c1ccc(OC)c(Nc2ncc(-c3cccc(OC)c3)o2)c1	-0.79
Cc1cc(O)cc(C)c1/C=C/c1cncc(C(=O)N(C)C)c1	1.87
[O-][S+]1CCN(Cc2ccc(-c3ccc4ncnc(Nc5ccc(OCc6ccccc6)c(Cl)c5)c4c3)o2)CC1	3.11

Would you mind giving inhibition for every molecule in the list below?
1. NS(=O)(=O)c1ccc(Nc2cc(-c3cccc(O)c3)n[nH]2)cc1
2. COc1ccc(-c2nn3ncccc3c2-c2ccnc(Nc3cccc(C(F)(F)F)c3)n2)cc1
3. CC(C)c1ccc2c(c1)NC(=O)/C2=N/Nc1ccc(S(N)(=O)=O)cc1
4. CCn1c(-c2nonc2N)nc2ccc(F)cc21
5. c1ccc(Cc2nc3ccc(Nc4ncnc5ccccc45)cc3[nH]2)cc1
6. c1ccc(Nc2ncc(-c3ccccc3)o2)cc1

1. 5.16
2. 6.61
3. 0.7
4. 8.56
5. 4.71
6. 3.87

----------
Assign inhibition to each entry below.
Target: MAP kinase-activated protein kinase 2 (Homo sapiens);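 also: figures are mean inhibition values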
Settings: at 0.1 µM
Answers are plain numbers, in %.

Example cases with answers are listed next.
Structure Notation	Unit Symbol	Recorded Result
Oc1cccc(-c2nc(-c3ccccc3)[nH]c2-c2ccncc2)c1	%	1.62
CN(C)CCCn1c(-c2nonc2N)nc2cnccc21	%	2.54
Cc1ccc2c(c1)/C(=N/Nc1ccc(S(N)(=O)=O)cc1)C(=O)N2	%	-0.81

Would you mind giving inhibition for every compound in the list below?
1. COc1ccc(-c2nn3ncccc3c2-c2ccnc(Nc3cccc(C(F)(F)F)c3)n2)cc1
2. C[C@@H](Oc1cc(-n2cnc3ccc(OC[C@@H](O)CO)cc32)sc1C(N)=O)c1ccccc1Cl
3. O=C1Nc2ccccc2/C1=C/Nc1ccc2[nH]c(=O)[nH]c2c1

1. 1.58
2. -0.75
3. 2.44

----------
Assign inhibition to each entry below.
System: Tyrosine-protein kinase ABL1 (Homo sapiens), P00519 [E255K]
Sequence (P00519 whole entry E255K): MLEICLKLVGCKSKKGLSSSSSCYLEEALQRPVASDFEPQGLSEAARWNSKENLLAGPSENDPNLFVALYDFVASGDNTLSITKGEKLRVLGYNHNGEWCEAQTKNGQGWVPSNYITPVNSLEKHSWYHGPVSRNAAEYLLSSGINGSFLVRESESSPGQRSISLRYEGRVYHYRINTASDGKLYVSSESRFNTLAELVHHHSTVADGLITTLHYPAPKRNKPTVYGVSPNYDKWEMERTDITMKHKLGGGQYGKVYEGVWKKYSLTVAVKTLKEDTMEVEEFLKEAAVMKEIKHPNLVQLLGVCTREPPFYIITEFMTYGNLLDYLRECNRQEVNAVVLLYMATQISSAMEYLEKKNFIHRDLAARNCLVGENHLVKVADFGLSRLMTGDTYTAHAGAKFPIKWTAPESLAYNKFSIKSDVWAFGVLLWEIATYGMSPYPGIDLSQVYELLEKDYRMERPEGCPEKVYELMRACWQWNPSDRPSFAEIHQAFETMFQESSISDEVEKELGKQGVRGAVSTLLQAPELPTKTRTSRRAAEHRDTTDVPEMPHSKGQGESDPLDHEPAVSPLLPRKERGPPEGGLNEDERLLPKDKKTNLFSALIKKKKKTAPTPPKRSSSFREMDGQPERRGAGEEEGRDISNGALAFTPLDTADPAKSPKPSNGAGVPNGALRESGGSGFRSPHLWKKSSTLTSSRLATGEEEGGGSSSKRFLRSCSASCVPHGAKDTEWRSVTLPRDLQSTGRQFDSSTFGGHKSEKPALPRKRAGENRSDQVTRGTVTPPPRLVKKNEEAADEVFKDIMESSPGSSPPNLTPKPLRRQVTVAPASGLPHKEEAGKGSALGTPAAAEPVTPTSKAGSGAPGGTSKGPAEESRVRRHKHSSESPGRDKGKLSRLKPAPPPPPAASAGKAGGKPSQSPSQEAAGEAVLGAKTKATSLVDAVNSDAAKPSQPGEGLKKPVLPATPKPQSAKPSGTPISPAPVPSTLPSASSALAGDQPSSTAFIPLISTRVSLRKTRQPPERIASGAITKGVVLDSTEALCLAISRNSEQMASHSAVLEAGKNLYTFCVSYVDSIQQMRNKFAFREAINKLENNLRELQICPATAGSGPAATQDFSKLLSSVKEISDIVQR
Conditions: at 1 µM

Example cases with answers are listed next.
Structure Notation	inhibition
Cc1ccc2c(-c3ccnc(Nc4cccc(C(F)(F)F)c4)n3)c(-c3ccccc3)nn2n1	19.7%
NS(=O)(=O)c1ccc(Nc2cc(-c3cccc(O)c3)n[nH]2)cc1	7.4%
CS(=O)(=O)Nc1cccc(-c2ccc3c(NC(=O)C4CC4)n[nH]c3c2)c1	7%
N#Cc1c(NC(=O)c2ccccc2F)sc2c1CCCC2	1.08%
Cc1ccc(Nc2ccnc(Nc3cccc(C(N)=O)c3)n2)cc1O	93.4%
CCn1c(-c2nonc2N)nc2ccc(F)cc21	4.59%

Would you mind giving inhibition for every molecule in the list below?
1. NS(=O)(=O)c1cccc(Nc2cc(-c3ccc(F)cc3)n[nH]2)c1
2. NC(=O)c1sc(-n2cnc3ccccc32)cc1OCc1ccccc1Br
3. NS(=O)(=O)c1cccc(-c2cc3ccncc3cc2OCc2ccccc2)c1
4. CCn1c(-c2nonc2N)nc2c(C#CC(C)(C)O)nc(OCCNC)cc21
5. Cc1cc(O)cc(C)c1/C=C/c1cncc(C(=O)N(C)C)c1

8.03%
4%
4.18%
2.96%
5.44%

----------
Biological target: Insulin receptor-related protein (Homo sapiens) (UniProt P14616);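 also: mean percent inhibition of IRR, reported within the GSK PKIS screening panel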
Sequence (P14616 27-742 limits assumed): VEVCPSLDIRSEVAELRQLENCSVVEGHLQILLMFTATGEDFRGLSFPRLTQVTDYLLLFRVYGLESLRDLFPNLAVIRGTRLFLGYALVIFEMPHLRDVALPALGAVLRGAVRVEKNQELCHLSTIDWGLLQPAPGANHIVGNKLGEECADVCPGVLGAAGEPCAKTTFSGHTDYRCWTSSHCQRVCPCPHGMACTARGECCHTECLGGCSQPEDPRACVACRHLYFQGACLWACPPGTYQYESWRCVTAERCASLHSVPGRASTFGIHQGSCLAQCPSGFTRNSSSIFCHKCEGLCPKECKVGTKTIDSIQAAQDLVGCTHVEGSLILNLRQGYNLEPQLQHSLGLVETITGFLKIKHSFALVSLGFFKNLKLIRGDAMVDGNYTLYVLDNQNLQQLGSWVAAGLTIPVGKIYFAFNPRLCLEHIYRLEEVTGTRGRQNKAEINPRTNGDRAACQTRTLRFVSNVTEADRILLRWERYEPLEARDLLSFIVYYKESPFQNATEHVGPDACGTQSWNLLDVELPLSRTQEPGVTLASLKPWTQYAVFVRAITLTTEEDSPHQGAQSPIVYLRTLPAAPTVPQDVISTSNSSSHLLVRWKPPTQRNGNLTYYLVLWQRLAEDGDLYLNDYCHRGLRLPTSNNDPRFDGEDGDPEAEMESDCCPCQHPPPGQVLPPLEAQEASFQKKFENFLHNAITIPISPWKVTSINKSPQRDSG
Sequence (P14616 747-1297 limits assumed): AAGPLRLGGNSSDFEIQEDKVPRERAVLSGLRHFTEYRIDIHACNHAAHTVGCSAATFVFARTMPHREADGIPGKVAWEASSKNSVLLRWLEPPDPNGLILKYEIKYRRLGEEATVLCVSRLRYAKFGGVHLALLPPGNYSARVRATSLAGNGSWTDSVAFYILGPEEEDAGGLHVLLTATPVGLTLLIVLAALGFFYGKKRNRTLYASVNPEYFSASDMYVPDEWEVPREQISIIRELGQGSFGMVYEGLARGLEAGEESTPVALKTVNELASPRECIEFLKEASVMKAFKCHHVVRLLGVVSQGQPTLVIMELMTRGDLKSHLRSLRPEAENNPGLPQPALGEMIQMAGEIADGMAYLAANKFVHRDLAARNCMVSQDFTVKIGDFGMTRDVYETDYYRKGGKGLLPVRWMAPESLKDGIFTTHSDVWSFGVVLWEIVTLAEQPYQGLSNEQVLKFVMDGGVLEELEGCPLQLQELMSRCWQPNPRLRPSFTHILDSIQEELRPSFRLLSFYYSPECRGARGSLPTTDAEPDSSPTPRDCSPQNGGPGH
Conditions: at 0.1 µM
Measured Parameter: inhibition (%)
Answers are plain numbers, in %.

Structure Notation	inhibition, %
COc1ccc(-c2nn3ncccc3c2-c2ccnc(Nc3cccc(C(F)(F)F)c3)n2)cc1	1.52

Would you mind giving inhibition for every molecule in the list below?
1. FC(F)(F)c1ccc(-c2nn3ncccc3c2-c2ccnc(Nc3ccc4c(c3)OCCO4)n2)cc1
2. COc1cc2ncn(-c3cc(OCc4ccccc4S(C)(=O)=O)c(C#N)s3)c2cc1OC
3. COc1ccc2ncnc(Nc3ccc(OCc4ccccc4)cc3)c2c1
4. NC(=O)c1sc(-n2cnc3ccccc32)cc1OCc1ccccc1Br

1. -0.78
2. 3.69
3. 1.39
4. 1.82

----------
Target: Phosphatidylinositol 4,5-bisphosphate 3-kinase catalytic subunit delta isoform (Homo sapiens);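 also: reported values are mean percent inhibition of PI3K-delta activity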
Sequence (whole entry): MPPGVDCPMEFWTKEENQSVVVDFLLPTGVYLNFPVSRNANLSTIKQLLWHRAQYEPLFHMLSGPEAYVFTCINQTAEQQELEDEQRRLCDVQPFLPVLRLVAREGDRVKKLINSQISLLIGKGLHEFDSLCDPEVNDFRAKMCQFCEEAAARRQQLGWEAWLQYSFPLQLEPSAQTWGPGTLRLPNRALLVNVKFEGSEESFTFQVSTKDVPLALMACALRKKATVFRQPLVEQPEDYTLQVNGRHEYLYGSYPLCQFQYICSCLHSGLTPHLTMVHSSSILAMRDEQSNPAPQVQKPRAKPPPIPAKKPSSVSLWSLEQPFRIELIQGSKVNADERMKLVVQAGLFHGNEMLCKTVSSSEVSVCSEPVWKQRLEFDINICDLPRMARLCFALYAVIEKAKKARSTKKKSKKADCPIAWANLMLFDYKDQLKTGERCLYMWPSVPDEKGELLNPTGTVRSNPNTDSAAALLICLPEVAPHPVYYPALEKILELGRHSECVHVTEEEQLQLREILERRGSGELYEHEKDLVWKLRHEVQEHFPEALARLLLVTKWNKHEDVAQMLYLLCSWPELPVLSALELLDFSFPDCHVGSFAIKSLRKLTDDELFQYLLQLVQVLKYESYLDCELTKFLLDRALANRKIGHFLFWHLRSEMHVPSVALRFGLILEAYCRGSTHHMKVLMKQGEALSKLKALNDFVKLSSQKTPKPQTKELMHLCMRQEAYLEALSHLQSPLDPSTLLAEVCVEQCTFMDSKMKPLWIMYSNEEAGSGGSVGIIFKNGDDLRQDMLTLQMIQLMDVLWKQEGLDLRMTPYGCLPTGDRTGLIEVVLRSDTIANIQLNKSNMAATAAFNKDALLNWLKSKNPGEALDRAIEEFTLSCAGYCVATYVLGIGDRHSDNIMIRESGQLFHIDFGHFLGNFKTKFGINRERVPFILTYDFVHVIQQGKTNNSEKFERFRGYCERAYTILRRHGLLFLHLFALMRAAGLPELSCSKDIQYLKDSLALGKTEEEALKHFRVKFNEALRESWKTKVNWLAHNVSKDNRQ
Conditions: at 1 µM
Measured Parameter: inhibition (%)
Give bare numbers, in %.

Example cases with answers are listed next.
Structure Notation	Measured Parameter	Recorded Result
CN(C)C(=O)O[C@H]1CN[C@H](C#Cc2cc3ncnc(Nc4ccc(OCc5cccc(F)c5)c(Cl)c4)c3s2)C1	inhibition	17.4
N#Cc1c(NC(=O)c2ccccc2F)sc2c1CCCC2	inhibition	2.06
COC(=O)Nc1nc2cc(Oc3ccc(NC(=O)Nc4cccc(Br)c4)cc3)ccc2[nH]1	inhibition	7.1
COc1cccc(-n2ncc3c(N/N=C/c4ccc(S(C)(=O)=O)cc4)ncnc32)c1	inhibition	2.43

Then there is this compound:
State, in one line, measured inhibition of NS(=O)(=O)c1ccc(N/N=C2\C(=O)Nc3ccc(Cl)cc32)cc1
0.13

----------
Biological target: Serine/threonine-protein kinase BRSK2 (Homo sapiens);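 also: values are mean inhibition of BRSK2 from the GSK PKIS screening dataset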
Conditions: at 0.1 µM
Measured Parameter: inhibition

Example cases with answers are listed next.
Compound	Target Or Test System	inhibition
NC(=O)c1cccc(Nc2nccc(Nc3cccc(F)c3)n2)c1	Serine/threonine-protein kinase BRSK2 (Homo sapiens)	0.1%
COc1cccc(-n2ncc3c(N/N=C/c4ccc(S(C)(=O)=O)cc4)ncnc32)c1	Serine/threonine-protein kinase BRSK2 (Homo sapiens)	20.1%
COc1ccc2ncnc(Nc3ccc(OCc4ccccc4)cc3)c2c1	Serine/threonine-protein kinase BRSK2 (Homo sapiens)	2.22%

Would you mind giving inhibition for every compound in the list below?
1. CCCN1CCCC(c2ccc(Nc3nc(Nc4cc(F)ccc4C(N)=O)c4cc[nH]c4n3)c(OC)c2)C1 (configuration not stated)
2. Nc1nccc(-c2c(-c3ccc(F)cc3)nn3cc(C(F)(F)F)ccc23)n1
3. Cc1ccc2c(-c3ccnc(Nc4cccc(C(F)(F)F)c4)n3)c(-c3ccccc3)nn2n1
4. Cc1ccc2c(-c3ccnc(Nc4ccc5c(c4)OCCO5)n3)c(-c3ccc(C(F)(F)F)cc3)nn2n1
5. CN(C)C(=O)O[C@@H]1CN[C@@H](C#Cc2cc3ncnc(Nc4ccc(OCc5cccc(F)c5)c(Cl)c4)c3s2)C1
6. CS(=O)(=O)CCNCc1nc(-c2ccc3ncnc(Nc4ccc(OCc5cccc(C(F)(F)F)c5)cc4)c3c2)cs1
7. COc1cc2ncnc(Nc3ccc4c(cnn4Cc4ccccc4)c3)c2cc1OC
8. OCc1ccc(-c2nc(-c3ccccn3)c(-c3ccc4c(c3)OCO4)[nH]2)cc1

1: 2.57%; 2: 0.15%; 3: 1.33%; 4: 0.24%; 5: 1.4%; 6: 0.24%; 7: 0.79%; 8: 2%

State, in one line, measured inhibition of Cc1ccc(Nc2ccnc(Nc3cccc(C(N)=O)c3)n2)cc1O
2.24%
